Recorded values, source patent US8492374B2.

Molecular target: FLT-3 kinase (Homo sapiens)
Construct: human FLT-3 (Arg571-Ser993); GST (N); purchased Cell Signaling Technology HTScan FLT-3 Kinase Assay Kit; host or cells: baculovirus expression system
Sequence (P36888 571-993): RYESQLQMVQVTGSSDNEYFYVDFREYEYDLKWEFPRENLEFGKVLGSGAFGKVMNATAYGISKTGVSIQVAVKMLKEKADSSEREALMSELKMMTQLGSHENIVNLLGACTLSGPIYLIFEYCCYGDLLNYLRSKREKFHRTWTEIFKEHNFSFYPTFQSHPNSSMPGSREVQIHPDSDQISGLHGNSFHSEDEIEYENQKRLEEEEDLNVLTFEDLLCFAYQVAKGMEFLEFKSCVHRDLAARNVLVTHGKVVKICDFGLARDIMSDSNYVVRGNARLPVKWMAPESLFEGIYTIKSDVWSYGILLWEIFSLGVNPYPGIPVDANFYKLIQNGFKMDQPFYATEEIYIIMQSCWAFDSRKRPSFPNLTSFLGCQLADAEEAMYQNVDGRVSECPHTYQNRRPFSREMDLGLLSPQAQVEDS
Experiment: FLT-3 kinase DELFIA assay (HTScan FLT-3 Kinase Assay Kit)
Type: biochemical
Conditions: 1 uM compound, 20 uM ATP
// thresholds for inhibition at 1 µM classes: low-valued = under 60%, mid-valued = from 60% up to 90%, high-valued = 90% and over

Asked: Hi there! Could you help me figure out the category for CC1CN(c2ccc3[nH]c(-c4c5cccccc-5[nH]c4=O)nc3c2)CC(C)N1 (centres unmarked) [Compound B24] please?
Given back: mid-valued

Asked: Hi there! Could you help me figure out the category for O=C(O)CCC(=O)N1CCCN(c2ccc3[nH]c(-c4c5cccccc-5[nH]c4=O)nc3c2)CC1 [Compound B89] please?
Given back: low-valued

Asked: Hi there! Could you help me figure out the category for O=C(Nc1ccc2[nH]c(-c3c4cccccc-4[nH]c3=O)nc2c1)Nc1cc(F)ccc1F [Compound B120] please?
Given back: low-valued

Asked: Hi there! Could you help me figure out the category for O=c1[nH]c2cccccc-2c1-c1nc2cc(N3CCC(N4CCCCC4)CC3)ccc2[nH]1 [Compound B102] please?
Given back: mid-valued

Asked: Hi there! Could you help me figure out the category for O=C(Nc1ccc(Cl)c(C(F)(F)F)c1)Nc1ccc2[nH]c(-c3c4cccccc-4[nH]c3=O)nc2c1 [Compound B118] please?
Given back: mid-valued

Asked: Hi there! Could you help me figure out the category for O=c1[nH]c2cccccc-2c1-c1nc2cc(N3CCCN(c4cnccn4)CC3)ccc2[nH]1 [Compound B99] please?
Given back: low-valued

Asked: Hi there! Could you help me figure out the category for Cc1cc(N2CCCN(c3ccc4[nH]c(-c5c6cccccc-6[nH]c5=O)nc4c3)CC2)nc(N(C)C)n1 [Compound B97] please?
Given back: low-valued

Asked: Hi there! Could you help me figure out the category for O=Cc1ccc(N2CCN(c3ccc4[nH]c(-c5c6cccccc-6[nH]c5=O)nc4c3)CC2)o1 [Compound B59] please?
Given back: high-valued

Asked: Hi there! Could you help me figure out the category for O=C(Nc1ccc2[nH]c(-c3c4cccccc-4[nH]c3=O)nc2c1)c1ccncc1 [Compound B75] please?
Given back: low-valued

Asked: Hi there! Could you help me figure out the category for CCN(CC)CCn1c2cccccc-2c(-c2nc3ccccc3[nH]2)c1=O [Compound B1] please?
Given back: low-valued

Asked: Hi there! Could you help me figure out the category for O=c1[nH]c2cccccc-2c1-c1nc2cc(-n3ccnc3)ccc2[nH]1 [Compound B115] please?
Given back: mid-valued

Asked: Hi there! Could you help me figure out the category for CN1CCCN(c2ccc3[nH]c(-c4c5cccccc-5[nH]c4=O)nc3c2)CC1 [Compound B77] please?
Given back: high-valued

Asked: Hi there! Could you help me figure out the category for O=C(Nc1ccccc1)N1CCN(c2ccc3[nH]c(-c4c5cccccc-5[nH]c4=O)nc3c2)CC1 [Compound B55] please?
Given back: high-valued
